Recorded Polyamine levels, Put, one value per entry.
Test system: DuPro Cells
ASSAY COMMENT: Cellular polyamine and oligoamine levels, DuPro cells (HPLC)
Assay type: cell-based
CONDITIONS USED: Day 4 of Treatment, analog conc. 0.8 μM
REPORTED METRIC: Polyamine levels, Put

INSERT INTO measurements (compound_smiles, reported_metric, result) VALUES
  ('CCNCCCCNCCCCNCCCCNCCCCNCCCCNCCCCNCCCCNCC.Cl.Cl.Cl.Cl.Cl.Cl.Cl.Cl', 'Polyamine levels, Put', '0.430 nmoles/10^6 cells'),
  ('CCNCCCCNCCCCNCCCCNCCCCNCCCCNCCCCNCCCCNCCCCNCCCCNCCCCNCCCCNCCCCNCCCCNCC.Cl.Cl.Cl.Cl.Cl.Cl.Cl.Cl.Cl.Cl.Cl.Cl.Cl.Cl', 'Polyamine levels, Put', '0.157 nmoles/10^6 cells'),
  ('CCNCCCCNCCCCNCCCCNCCCCNCCCCNCCCCNCCCCNCCCCNCCCCNCC.Cl.Cl.Cl.Cl.Cl.Cl.Cl.Cl.Cl.Cl', 'Polyamine levels, Put', '0.560 nmoles/10^6 cells'),
  ('CCNCCCCNCCCCNCCCCNCCCCNCCCCNCCCCNCCCCNCCCCNCCCCNCCCCNCCCCNCC.Cl.Cl.Cl.Cl.Cl.Cl.Cl.Cl.Cl.Cl.Cl.Cl', 'Polyamine levels, Put', '0.593 nmoles/10^6 cells');
